# system-name: recombinant HA (rHA), subtype H6 (A/teal/HK/W312/97(H6N1)) (influenza A virus)
# method-description: ELISA, coated rHA
Measured EC50 values are reported for all entries that follow.
State the answer as a number, implicitly in mg/L.

1) Antibody 6 (antibody, V domains shown) VH: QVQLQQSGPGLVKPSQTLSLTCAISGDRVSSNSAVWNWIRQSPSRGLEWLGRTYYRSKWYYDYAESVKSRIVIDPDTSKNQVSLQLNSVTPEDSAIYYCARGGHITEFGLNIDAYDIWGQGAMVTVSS VL: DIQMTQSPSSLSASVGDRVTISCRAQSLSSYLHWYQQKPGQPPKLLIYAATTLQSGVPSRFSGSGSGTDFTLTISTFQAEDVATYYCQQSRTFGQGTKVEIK = 0.214
2) Antibody 8 (antibody, V domains shown) VH: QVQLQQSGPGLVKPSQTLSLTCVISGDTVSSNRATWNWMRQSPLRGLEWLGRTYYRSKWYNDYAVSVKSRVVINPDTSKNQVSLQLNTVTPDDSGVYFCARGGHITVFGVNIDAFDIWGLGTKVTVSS VL: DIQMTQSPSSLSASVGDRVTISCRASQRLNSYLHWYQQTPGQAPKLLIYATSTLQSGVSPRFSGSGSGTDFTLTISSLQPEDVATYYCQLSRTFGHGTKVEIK = 0.091
3) Antibody 10 (antibody, V domains shown) VH: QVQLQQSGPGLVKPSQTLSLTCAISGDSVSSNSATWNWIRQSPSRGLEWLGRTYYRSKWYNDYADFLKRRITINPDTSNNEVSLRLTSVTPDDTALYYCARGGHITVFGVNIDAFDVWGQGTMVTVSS VL: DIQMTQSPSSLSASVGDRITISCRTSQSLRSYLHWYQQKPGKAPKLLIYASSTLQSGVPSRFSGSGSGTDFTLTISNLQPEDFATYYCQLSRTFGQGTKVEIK = 0.097

Next:
# EC50 of Antibody 5 (antibody, V domains shown) VH: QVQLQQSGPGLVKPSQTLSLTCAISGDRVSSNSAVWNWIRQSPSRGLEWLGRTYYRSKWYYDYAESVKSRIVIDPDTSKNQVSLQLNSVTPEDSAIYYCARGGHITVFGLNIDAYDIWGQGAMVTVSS VL: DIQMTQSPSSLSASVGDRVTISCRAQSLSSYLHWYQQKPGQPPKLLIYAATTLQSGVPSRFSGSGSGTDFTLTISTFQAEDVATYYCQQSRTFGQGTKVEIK = 0.047

The reported numbers originate from patent US20160257732A1.
